Measured values drawn from ChEMBL document CHEMBL1132620 for this set.

# system_name: GABA-A receptor; alpha-1/beta-2/gamma-2 (Homo sapiens) (UniProt P14867+P47870+P18507)
# experiment: In vitro GABA-mediated chloride current in A293 cells expressing GABA-A benzodiazepine receptor alpha-1-beta-2-gamma-2 subunits at 5 uM
# Type: functional, cell-based
# run_conditions: HEK293
For each record, check the reported Change in Cl- current: if it is below 0.4 write Fulfilled, else write Not fulfilled.

Example entries and their recorded answers appear below.
| compound | system_name | cat |
| --- | --- | --- |
| CC1CNCC(C)N1C(=O)N1Cc2c(C(=O)OC(C)(C)C)ncn2-c2ccc(F)cc21 (centres undefined) | GABA-A receptor; alpha-1/beta-2/gamma-2 (Homo sapiens) (UniProt P14867+P47870+P18507) | Fulfilled |
| C[C@@H]1CN(C(=O)N2Cc3c(C(=O)OC(C)(C)C)ncn3-c3ccc(C(F)(F)F)cc32)C[C@H](C)N1C | GABA-A receptor; alpha-1/beta-2/gamma-2 (Homo sapiens) (UniProt P14867+P47870+P18507) | Not fulfilled |

# input Bench note: check whether C[C@@H]1CN(C(=O)N2Cc3c(C(=O)OC(C)(C)C)ncn3-c3ccc(Cl)cc32)C[C@@H](C)N1 shows Change in Cl- current below 0.4
# output Fulfilled

# input Bench note: check whether CC(C)(C)OC(=O)c1ncn2c1CN(C(=O)N1CCNCC1)c1cc(Cl)ccc1-2 shows Change in Cl- current below 0.4
# output Fulfilled

# input Bench note: check whether C[C@@H]1CN(C(=O)N2Cc3c(C(=O)OC(C)(C)C)ncn3-c3ccc(Cl)cc32)CCN1 shows Change in Cl- current below 0.4
# output Fulfilled

# input Bench note: check whether CN(C)C(=O)N1Cc2c(-c3noc(C4CC4)n3)ncn2-c2ccccc21 shows Change in Cl- current below 0.4
# output Not fulfilled

# input Bench note: check whether CC(C)(C)OC(=O)c1ncn2c1CN(C(=O)N1CC3CC1CN3)c1cc(Cl)ccc1-2 (centres undefined) shows Change in Cl- current below 0.4
# output Not fulfilled
